The measurements presented in this section are drawn from patent US20040204474A1.

Assay: solubility of carvedilol in adjuvants and solvents with lipophilic character
Type: physicochemical
Settings: capric acid, 37 °C, oil or lipid, at 37° C.; read-out: solubility in capric acid
result_type: solubility

# solubility lookup, item COc1ccccc1OCCNCC(O)COc1cccc2[nH]c3ccccc3c12 (stereo not shown)
> 100 mg/mL

----------
Test: solubility of carvedilol in adjuvants and solvents with lipophilic character
Format: physicochemical
Settings: oil or lipid; all named solvents; read-out: solubility in glycerol oleyloleate, medium chain triglycerides and natural oils (cod liver, soya bean, sesame, peanut, olive, cottonseed oil)
result_type: solubility

# solubility lookup, item COc1ccccc1OCCNCC(O)COc1cccc2[nH]c3ccccc3c12 (stereo not shown)
< 50 mg/mL
